# test-system: human PDE2A1 (Homo sapiens (Human))
# Sequence (O00408 other isoform, or with tags, fused parts or gaps): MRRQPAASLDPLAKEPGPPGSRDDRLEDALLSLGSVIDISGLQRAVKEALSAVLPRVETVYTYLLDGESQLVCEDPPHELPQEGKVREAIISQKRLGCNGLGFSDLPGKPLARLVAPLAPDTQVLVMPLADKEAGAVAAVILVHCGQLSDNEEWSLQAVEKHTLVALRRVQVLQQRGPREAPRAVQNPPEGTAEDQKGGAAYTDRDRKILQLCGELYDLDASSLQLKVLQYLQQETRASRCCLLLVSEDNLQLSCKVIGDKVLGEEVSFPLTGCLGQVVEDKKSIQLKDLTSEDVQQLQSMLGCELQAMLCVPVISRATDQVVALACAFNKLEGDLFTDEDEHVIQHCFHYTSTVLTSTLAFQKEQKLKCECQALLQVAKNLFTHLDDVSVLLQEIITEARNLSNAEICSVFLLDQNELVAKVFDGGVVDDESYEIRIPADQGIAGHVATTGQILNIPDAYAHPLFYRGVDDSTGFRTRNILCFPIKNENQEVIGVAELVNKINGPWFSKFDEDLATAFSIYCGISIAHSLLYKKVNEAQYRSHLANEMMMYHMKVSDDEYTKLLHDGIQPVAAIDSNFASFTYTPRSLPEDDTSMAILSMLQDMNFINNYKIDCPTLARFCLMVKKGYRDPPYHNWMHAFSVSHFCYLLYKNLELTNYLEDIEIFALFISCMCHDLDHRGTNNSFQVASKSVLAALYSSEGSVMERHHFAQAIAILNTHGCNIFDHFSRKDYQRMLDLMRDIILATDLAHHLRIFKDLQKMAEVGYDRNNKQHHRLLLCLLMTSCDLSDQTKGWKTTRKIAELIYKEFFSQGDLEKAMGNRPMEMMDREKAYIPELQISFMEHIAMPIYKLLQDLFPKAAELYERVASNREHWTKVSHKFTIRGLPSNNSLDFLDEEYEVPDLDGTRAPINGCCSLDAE
# assay-remarks: IMAP FP PDE selectivity panel, human PDE2A1
# Type: biochemical
# conditions-used: Human PDE2, Lab B; read-out: Human PDE2 Ki (nM) - Lab B
quantity-measured: Ki (nM)

Completed entries (count: 5):
> print(dat)
                                   molecule  quantity.measured  meas.value
1  CC[C@@H](NC(=O)c1cc(=O)[nH]c(C(C)(C)c2ccc(OC)cc2)n1)c1ccc(SC(F)(F)F)c(F)c1                 Ki          40
2  CC(C)[C@@H](NC(=O)c1cc(=O)[nH]c(-c2ccccc2)n1)c1ccc(C(F)(F)F)cc1                 Ki         2.3
3  Cc1nc(C(=O)NC2(c3ccc(C(F)(F)F)cc3F)CC2)cc(=O)[nH]1                 Ki          51
4  O=C(N[C@@H](c1ccc(SC(F)(F)F)c(F)c1)C1CC1)c1cc(=O)[nH]c(-c2ncccn2)n1                 Ki         9.3
5  CC(C)(C)[C@@H](NC(=O)c1cc(=O)[nH]c(-c2ccccc2)n1)c1ccc(OC(F)(F)F)cc1                 Ki         1.5

[a] Cc1nc(C(=O)N[C@@H](c2ccc(C3CC3)c(F)c2)C(C)(C)C)cc(=O)[nH]1
[b] CCc1nc(C(=O)NC2(c3ccc(C(F)(F)F)c(F)c3)CC2)cc(=O)[nH]1
[c] Cc1nc(C(=O)NC(c2ccc(C3(C)CC3)c(F)c2)C(C)(C)C)cc(=O)[nH]1 (single isomer, unassigned)
[d] Cc1nc(C(=O)N[C@@H](c2ccc(OC(F)F)cc2)C2CC2)cc(=O)[nH]1
Q. Task field, ranking: reported Ki, descending order. // format: requested-order list of labels
A. d, b, c, a

[1] CC[C@@H](NC(=O)c1cc(=O)[nH]c(-c2ncccn2)n1)c1ccc(SC(F)(F)F)c(F)c1
[2] CC1(C(NC(=O)c2cc(=O)[nH]c(C3CC3)n2)c2ccc(SC(F)(F)F)c(F)c2)CC1 (single isomer, unassigned)
Q. Which entry shows the lesser value of Ki here, 1 or 2 ? Return value: the label identifying the chosen record.
A. 1
(1: 2.1 nM, 2: 3.6 nM)

[A] CC1([C@@H](NC(=O)c2cc(=O)[nH]c(-c3ncccn3)n2)c2ccc3c(c2)OC(F)(F)O3)CC1
[B] Cc1nc(C(=O)NC(C)(C)c2ccc(OC(F)(F)F)cc2F)cc(=O)[nH]1
Q. Sorting by Ki in descending order, would A or B appear first? Return value: the label identifying the chosen record.
A. B

[A] CC(C)(C)[C@@H](NC(=O)c1cc(=O)[nH]c(-c2ccccc2)n1)c1ccc(CC(F)(F)F)cc1
[B] Cc1nc(C(=O)N[C@H](C)c2ccc(C(F)F)c(F)c2)cc(=O)[nH]1
[C] Cc1nc(C(=O)NC(C)(C)c2ccc(C(F)F)c(F)c2)cc(=O)[nH]1
[D] Cc1nc(C(=O)N[C@@H](c2ccc(OC(F)F)cc2)C2(C)CC2)cc(=O)[nH]1
[E] COc1ccc(Cc2nc(C(=O)N[C@@H](c3ccc(OC(F)(F)F)c(F)c3)C(C)(C)C)cc(=O)[nH]2)cc1
Q. Task field, ranking: reported Ki, descending order. // format: requested-order list of labels
A. B, C, D, A, E
(B: 133 nM, C: 72 nM, D: 30 nM, A: 2.4 nM, E: 0.69 nM)
